Reported GI50 values for the following compounds.
System: HOP-62
Assay Name: NCI tumour cell line growth inhibition, 48 h
Calls of active or inactive are those of the source. Cut-off read from the data, not from the text of the source: active = GI50 up to about 1.1 µM and inactive = higher.

Worked examples follow.
INSERT INTO results (compound, measured_attribute, observed_measurement) VALUES
  ('Cc1ccc2occ/c(=N\Nc3ccccc3)c2c1', 'GI50', '32.6 µM (inactive)'),
  ('C=CCc1cc(OC)c2c(c1)C(O)CC(c1ccccc1)O2 (stereo not given)', 'GI50', '> 100 µM (inactive)'),
  ('O=c1c2cc([N+](=O)[O-])ccc2sc2ccsc12', 'GI50', '> 100 µM (inactive)');

Q: Give the measured GI50 of `CCOC(=O)[N-]c1ccc(S(=O)(=O)[O+](C)CCl)cc1.CCOC(=O)[N-]c1ccc(S(=O)(=O)[O+](C)CCl)cc1.NC(=O)N=O.NC(=O)OCCCl` .
Result: > 100 µM (inactive)

Q: Now this one: `COc1ccc2c(c1)CC[C@@H]1[C@@H]2CC[C@]2(C)C(=O)/C(=C/c3ccc(O)c(OC)c3)C[C@@H]12`
Result: 62.7 µM (inactive)

Q: Record: `CCc1nnc(CC)n1-n1c(Cc2ccccc2)n[nH]c1=O`
Result: > 100 µM (inactive)

----------
System: KM12
Assay Name: NCI tumour cell line growth inhibition, 48 h
Calls of active or inactive are those of the source. Cut-off read from the data, not from the text of the source: active = GI50 up to about 1.1 µM and inactive = higher.
Bench note: report the call from 1 (yes) = active, 0 (no) = inactive

INSERT INTO assay_data (compound, assigned_label) VALUES
  ('O=C(CCCCCCCCCCc1ccccc1)c1c(O)cccc1O', '0 (no)'),
  ('CC(C)(C)c1cc(C(OCCl)(C(F)(F)F)C(F)(F)F)c2c(c1)C(C(F)(F)F)(C(F)(F)F)OC21c2ccccc2C(=O)c2ccccc21', '0 (no)'),
  ('NS(=O)(=O)c1ccc(/N=N/c2cc3ccccc3c(C(=O)O)c2O)cc1', '0 (no)'),
  ('O=C(/C=C/c1ccccc1Cl)c1ccc(Cl)cc1Cl', '0 (no)'),
  ('c1ccc2c(c1)Nc1nc3nonc3nc1N2', '0 (no)');

Q: Test call for this compound, please: `COc1ccc2c(c1)CCc1c-2[nH]c2ccc(OC)cc12`
Result: 0 (no)

Q: Again, but for `CNC(=O)c1nnn(Cc2ccccc2)c1S`
Result: 0 (no)

Q: Consider next the compound `Nc1ccc(N)c2c1C(=O)c1ccccc1C2=O` in the same way.
Result: 0 (no)

Q: Do the same for `CC1(C)O[C@H]2Cn3c(c(C#N)c4ccccc43)[C@H]2O1` please
Result: 0 (no)

Q: // next record CN(C)/N=C1\CC(c2ccccc2)C(C#N)(C#N)C1(C#N)C#N (stereo not given)
Result: 0 (no)

Q: Also, `Cc1nc2c(n1-c1ccccc1)C(=O)c1ccccc1C2=O` please.
Result: 0 (no)

Q: What would you report for COC(=O)C1CC2CC1C1C2SC(F)(F)C1(F)F (stereo not given) ?
Result: 0 (no)

Q: Then `CN(C)/C=C/c1nnnn1-c1ccc(I)cc1` ?
Result: 0 (no)

----------
System: K562
Assay Name: NCI tumour cell line growth inhibition, 48 h
Active and inactive are the calls of the source. No stated cut-off is given here; in the data, active = GI50 up to about 1.1 µM and inactive = higher.
API: response.call in Y (active), N (inactive)

See these solved cases before continuing.
INSERT INTO assay_data (compound, test_system, assigned_label) VALUES
  ('Cc1ccc2c(C(=O)c3c(C)n(CCN4CCOCC4)c4ccccc34)cccc2c1', 'K562', 'N'),
  ('CC1=NN(C(=O)c2ccccc2O)C(=O)/C1=C/c1ccc([N+](=O)[O-])cc1', 'K562', 'Y'),
  ('COc1ccc(C[C@@H]2OC3(C=CC(=O)CC3Sc3ccccc3)O[C@H]2Cc2ccc(OC)cc2)cc1 (some centres not stated)', 'K562', 'N');

Q: Record request — test call for NC(CO)C(=O)NCC(=O)O (configuration not stated)
Result: N

Q: Let us now turn to `O=S(=O)(O)c1cc(O)c2c(O)c(/N=N/c3ccc(/C=C/c4ccc(/N=N/c5c(S(=O)(=O)O)cc6cc(S(=O)(=O)O)cc(O)c6c5O)cc4S(=O)(=O)O)c(S(=O)(=O)O)c3)c(S(=O)(=O)O)cc2c1`
Result: N

Q: Next up: COC(=O)c1ccccc1CC1Cc2cccc(C)c2C1=O (configuration not stated)
Result: N

Q: Then what about the compound `C[N+](C)(C)CC(=O)N/N=C(/Cc1nc2c3c(ccc2nc1O)C(=O)c1ccccc1C3=O)C(=O)Nc1ccc(Cl)c(Cl)c1` ?
Result: N

Q: Note, next up: `CCOC(=O)N1CCN(C=S)CC1`
Result: N

Q: Another compound: `O=C(O)CCSC(=O)Nc1cccc(F)c1`
Result: N

Q: Another compound to check: `O=C1C(c2ccccc2)=C(c2ccccc2)C1(Cl)Cl`
Result: N

Q: What would you report for `CNC(=O)N(CCC#N)CCN(C(=O)NC)c1ccccc1` ?
Result: N

Q: Ok, now O=C(O)CC(O)(C(=O)O)C(O)C(=O)O (configuration not stated)
Result: N

Q: Next compound up: `Sc1nnc(C(c2ccccc2)c2ccccc2)[nH]1`
Result: N

Q: Same question for CC(N)(Cc1c[nH]c2ccccc12)C(=O)O (configuration not stated) please.
Result: N

Q: Can you handle O=C1C2C3CCC(C2C(=O)N1CO)C1C2C(=O)N(CO)C(=O)C2C31 (configuration not stated) next?
Result: N

Q: Next: `Cn1c(=S)c2nc(SCCN3C(=O)c4ccccc4C3=O)[nH]c2n(C)c1=O`
Result: N

----------
Measured GI50 of individual entries
Test system: NCI-H522
Assay Name: NCI tumour cell line growth inhibition, 48 h
Activity calls are given as the source filed them. Rule as the data show it: active = GI50 up to about 1.1 µM and inactive = higher.

INSERT INTO measurements (molecule, observed_measurement) VALUES
  ('O=C(O)CNCCc1ccccc1', '> 100 µM (inactive)');

Q: Quick one: GI50 for COC(CN(C(=O)c1ccccc1)C1CCC2(SCCS2)c2[nH]c3ccccc3c21)OC (stereo not given) ?
Result: 13.9 µM (inactive)

Q: Item: CCOC(=O)CCC1(C(=O)OC)CCCC1=O (stereo not given)
Result: > 100 µM (inactive)

Q: // next record `Cc1ccc(/C(Cl)=C/C=C(C#N)C#N)cc1`
Result: 1.98 µM (inactive)

Q: Again, but for `CCOP(=O)(C/C=C/Cn1nc(Br)c(=O)[nH]c1=O)OCC`
Result: > 100 µM (inactive)

----------
Tested on: KM12
Assay Name: NCI tumour cell line growth inhibition, 48 h
Active and inactive are the calls of the source. No stated cut-off is given here; in the data, active = GI50 up to about 1.1 µM and inactive = higher.
Measured Attribute: GI50

Recorded GI50, per entry:
INSERT INTO measurements (compound, test_system, observed_measurement) VALUES
  ('CCOP(=O)(OCC)C(C)(CC)N/C(N)=N/C#N (configuration not stated)', 'KM12', '> 100 µM (inactive)'),
  ('N/C(=N\c1ccc(Cl)cc1)NS(=O)(=O)c1ccc(-c2ccccn2)s1', 'KM12', '29.7 µM (inactive)'),
  ('CC1(CCC2C=CCC2)CCCNC1=S (configuration not stated)', 'KM12', '> 10 µM (inactive)'),
  ('Cc1ccnc(NC(=S)Nc2ccccc2Cl)c1', 'KM12', '> 100 µM (inactive)');

Q: # query: GI50 | item COc1cc(/C=C2/SC(c3ccccc3)N(c3ccc(NC(C)=O)cc3)C2=O)cc(OC)c1OC (configuration not stated) | system: KM12
Result: 91.4 µM (inactive)

Q: Okay, and `Cc1cc(C)nc(NS(=O)(=O)c2ccc(NC(=O)c3cccc4c(Nc5ccc(S(=O)(=O)Nc6nc(C)cc(C)n6)cc5)c5ccc(Cl)cc5nc34)cc2)n1` ?
Result: 33.1 µM (inactive)

Q: Please answer likewise for `C#CCNC(=O)ON1C(=O)CCC1=O`
Result: > 100 µM (inactive)

Q: Same again, this time with `C=CC(C)(C)/C=C/c1ccc(O)cc1`
Result: 39.3 µM (inactive)

Q: Would you kindly repeat that for `COC(=O)C1=C(C(=O)OC)SC2(S1)C1=C(CCC1)SC(C(=O)OC)=C2C(=O)OC` ?
Result: 15.1 µM (inactive)

Q: Next up: `O=C(CNCc1ccccc1)Oc1c(Cl)c(Cl)c(Cl)c(Cl)c1Cl`
Result: 21.8 µM (inactive)

Q: Then this compound: `O=C(Cc1nc2ccccc2c(=O)n1-c1c(Cl)cccc1Cl)c1ccncc1`
Result: 15.8 µM (inactive)

Q: Another compound to check: `Nc1ccc(-c2nc3ccccc3s2)cc1`
Result: 21.4 µM (inactive)

----------
System: SNB-75
Assay Name: NCI tumour cell line growth inhibition, 48 h
Active and inactive are the calls of the source. No stated cut-off is given here; in the data, active = GI50 up to about 1.1 µM and inactive = higher.
Measured Attribute: GI50

Known GI50 results, listed for orientation:
INSERT INTO measurements (compound, observed_measurement) VALUES
  ('CCOC(=O)Cc1cc(=O)oc2cc(O)ccc12', '> 100 µM (inactive)'),
  ('CCCCCCCCCCCC1CC(=O)NCCCN(C)CCCCN(C)CCCN1C (stereo unspecified)', '1.59 µM (inactive)'),
  ('C=CCc1cc(OC)c2c(c1)C(O)CC(c1ccccc1)O2 (stereo unspecified)', '> 100 µM (inactive)'),
  ('NS(=O)(=O)c1nnc(NC(=S)NC(=O)Nc2ccc(Cl)c(Cl)c2)s1', '17.4 µM (inactive)'),
  ('CC1(CCC2C=CCC2)CCCNC1=S (stereo unspecified)', '> 10 µM (inactive)');

Q: Could you share which GI50 value was measured for `CN1CN(c2ccccc2)C2(CCN(Cc3nc4ccccc4s3)CC2)C1=O` ?
Result: 16.7 µM (inactive)

Sourced from ChEMBL document CHEMBL1201862
